Would you mind telling me the reported IC50 of each entry?
- tested.system: BdOctβR1 (Bactrocera dorsalis)
- assay.procedure: cell-based
Structures can show the parent of a compound that is named as a salt.
Give bare numbers, in µM.

compound	observed.measurement
CN(C)CCCN1c2ccccc2Sc2ccc(Cl)cc21 [chlorpromazine, chlorpromazine hydrochloride]	2.66

Now look at this one.
Input Cc1ccc(N(CC2=NCCN2)c2cccc(O)c2)cc1 [phentolamine, phentolamine hydrochloride] . Output IC50: 3.8

###

Would you mind telling me the reported EC50 of each entry?
- tested.system: BdOctβR1 (Bactrocera dorsalis, UniProt A0ABM3J3U4)
- Sequence (A0ABM3J3U4 entry or part of it): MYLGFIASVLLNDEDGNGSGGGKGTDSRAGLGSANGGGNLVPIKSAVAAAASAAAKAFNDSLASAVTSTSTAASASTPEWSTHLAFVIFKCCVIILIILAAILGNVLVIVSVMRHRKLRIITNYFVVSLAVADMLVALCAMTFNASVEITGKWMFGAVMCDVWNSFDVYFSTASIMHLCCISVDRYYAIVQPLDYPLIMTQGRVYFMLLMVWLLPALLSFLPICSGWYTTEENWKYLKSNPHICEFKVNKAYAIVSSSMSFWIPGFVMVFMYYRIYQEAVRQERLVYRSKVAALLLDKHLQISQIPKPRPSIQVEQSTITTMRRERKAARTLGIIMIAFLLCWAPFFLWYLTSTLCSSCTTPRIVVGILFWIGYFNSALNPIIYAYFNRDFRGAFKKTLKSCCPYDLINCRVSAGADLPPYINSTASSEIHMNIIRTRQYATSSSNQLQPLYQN
- assay.procedure: Agonist cAMP response assay (GloSensor luminescence) of BdOctβR1 transiently expressed in HEK-293 cells
- conditions.used: BdOctβR1 in HEK-293 cells, cAMP luminescence; read-out: median effective concentration (EC50)
Counter-ions that a name gives are not always drawn.
Answers are plain numbers, in nM.

Recorded EC50, per entry:
compound	units.of.measure	EC50
NCC(O)c1ccc(O)cc1 (racemic) [octopamine, (±)-octopamine hydrochloride]	nM	0.911
NCCc1ccc(O)cc1 [tyramine, Tyramine hydrochloride]	nM	19.7
NCCc1ccc(O)c(O)c1 [dopamine, dopamine hydrochloride]	nM	3320

Input c1ccc2c(CC3=NCCN3)cccc2c1 [naphazoline, naphazoline hydrochloride] . Output EC50: 0.635
